- ASSAY_CONDITIONS: in methanol, 303.15 K
MEASUREMENT_LABEL: solubility (mole fraction)

Q: # query: solubility (mole fraction) of entry `Cc1cccc(C(=O)O)c1N`
Ans: 0.0423

---

- ASSAY_CONDITIONS: in toluene, 288.15 K
MEASUREMENT_LABEL: solubility (mole fraction)
Numbers only.

Q: # query: solubility (mole fraction) of entry `Cc1cccc(C(=O)O)c1N`
Ans: 0.00184

---

- ASSAY_CONDITIONS: in ethanol, 308.15 K
MEASUREMENT_LABEL: solubility (mole fraction)
Numbers only.

Q: # query: solubility (mole fraction) of entry `Cc1cccc(C(=O)O)c1N`
Ans: 0.0444

---

- ASSAY_CONDITIONS: in n-butanol, 283.15 K
MEASUREMENT_LABEL: solubility (mole fraction)
Answers are plain numbers.

Q: # query: solubility (mole fraction) of entry `Cc1cccc(C(=O)O)c1N`
Ans: 0.0144

---

- ASSAY_CONDITIONS: in n-butanol, 313.15 K
MEASUREMENT_LABEL: solubility (mole fraction)

Q: # query: solubility (mole fraction) of entry `Cc1cccc(C(=O)O)c1N`
Ans: 0.0422

---

- ASSAY_CONDITIONS: in ethyl acetate, 278.15 K
MEASUREMENT_LABEL: solubility (mole fraction)
Numbers only.

Q: # query: solubility (mole fraction) of entry `Cc1cccc(C(=O)O)c1N`
Ans: 0.0294

---

- ASSAY_CONDITIONS: in n-propanol, 278.15 K
MEASUREMENT_LABEL: solubility (mole fraction)
Give bare numbers.

Q: # query: solubility (mole fraction) of entry `Cc1cccc(C(=O)O)c1N`
Ans: 0.0151

---

- ASSAY_CONDITIONS: in 2-butanone, 313.15 K
MEASUREMENT_LABEL: solubility (mole fraction)
One number for each entry.

Q: # query: solubility (mole fraction) of entry `Cc1cccc(C(=O)O)c1N`
Ans: 0.124

---

- ASSAY_CONDITIONS: in methanol, 288.15 K
MEASUREMENT_LABEL: solubility (mole fraction)
Numbers only.

Q: # query: solubility (mole fraction) of entry `Cc1cccc(C(=O)O)c1N`
Ans: 0.0273

---

- ASSAY_CONDITIONS: in 2-butanone, 288.15 K
MEASUREMENT_LABEL: solubility (mole fraction)
Give bare numbers.

Q: # query: solubility (mole fraction) of entry `Cc1cccc(C(=O)O)c1N`
Ans: 0.0792

---

- ASSAY_CONDITIONS: in n-butanol, 308.15 K
MEASUREMENT_LABEL: solubility (mole fraction)
Answers are plain numbers.

Q: # query: solubility (mole fraction) of entry `Cc1cccc(C(=O)O)c1N`
Ans: 0.0357

---

- ASSAY_CONDITIONS: in isopropanol, 303.15 K
MEASUREMENT_LABEL: solubility (mole fraction)
Answers are plain numbers.

Q: # query: solubility (mole fraction) of entry `Cc1cccc(C(=O)O)c1N`
Ans: 0.0253

---

- ASSAY_CONDITIONS: in cyclohexane, 308.15 K
MEASUREMENT_LABEL: solubility (mole fraction)

Q: # query: solubility (mole fraction) of entry `Cc1cccc(C(=O)O)c1N`
Ans: 0.00035

---

- ASSAY_CONDITIONS: in ethanol, 283.15 K
MEASUREMENT_LABEL: solubility (mole fraction)
Numbers only.

Q: # query: solubility (mole fraction) of entry `Cc1cccc(C(=O)O)c1N`
Ans: 0.0208
